Target: DPP1 in HL-60 cells (Homo sapiens (Human), UniProt P53634)
Sequence (P53634 25-134): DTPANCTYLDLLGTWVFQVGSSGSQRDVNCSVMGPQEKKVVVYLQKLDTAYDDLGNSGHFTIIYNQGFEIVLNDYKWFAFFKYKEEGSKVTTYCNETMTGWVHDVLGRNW
Sequence (P53634 231-394): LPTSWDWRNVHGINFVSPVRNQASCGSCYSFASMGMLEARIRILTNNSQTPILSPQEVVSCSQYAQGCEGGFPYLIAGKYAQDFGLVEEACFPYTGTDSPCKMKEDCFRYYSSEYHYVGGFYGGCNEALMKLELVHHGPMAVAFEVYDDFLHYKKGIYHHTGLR
Sequence (P53634 395-463): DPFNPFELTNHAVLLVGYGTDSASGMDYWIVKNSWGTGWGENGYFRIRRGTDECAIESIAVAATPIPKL
Assay: DPP1 cell single-point percent inhibition testing (HL-60 cells, H-Gly-Phe-AFC substrate)
Type: cell-based
Conditions: read-out: DPP1 cell % inhibition @ 5 nM, 5 nM compound, 100 μM H-Gly-Phe-AFC, 60 min pre-incubation at 37° C.

{"molecule": "CN(C)C[C@H](O)C(=O)N[C@H](C#N)Cc1ccc(-c2ccc3c(c2)C2(CCN(C)C2)OC3=O)cc1 (stereo partly shown)", "inhibition at 0.005 µM": "≤ 76.5%"}
{"molecule": "CCN1C(=O)Cc2ccc(-c3ccc(C[C@@H](C#N)NC(=O)[C@@](C)(O)CN(C)C)c(F)c3)cc21", "inhibition at 0.005 µM": "76.5 to 93.9%"}
{"molecule": "CN(C)CCn1c(=O)oc2ccc(-c3ccc(C[C@@H](C#N)NC(=O)[C@@H](O)CN(C)C)c(F)c3)cc21", "inhibition at 0.005 µM": "≤ 76.5%"}
{"molecule": "CN(C)C[C@H](O)C(=O)N[C@H](C#N)Cc1ccc(-c2ccc3c(c2)C2(CN(C)C2)OC3=O)cc1", "inhibition at 0.005 µM": "≤ 76.5%"}
{"molecule": "CN(C)C[C@](C)(O)C(=O)N[C@H](C#N)Cc1cc2c(cc1F)-c1ccc(F)cc1CO2", "inhibition at 0.005 µM": "≤ 76.5%"}
{"molecule": "CO[C@@H](CN(C)C)C(=O)N[C@H](C#N)Cc1ccc(-c2ccc3nnn(C)c3c2)cc1", "inhibition at 0.005 µM": "≤ 76.5%"}
{"molecule": "CN(C)C[C@H](O)C(=O)NC(C#N)Cc1cc2c(cc1F)-c1cc3c(cc1CO2)oc(=O)n3C (stereo partly shown)", "inhibition at 0.005 µM": "≤ 76.5%"}

====

Molecular target: human DPP1 enzyme (Homo sapiens (Human), UniProt P53634)
Sequence (P53634 25-134): as the sequence (P53634 25-134) above
Sequence (P53634 231-394): as the sequence (P53634 231-394) above
Sequence (P53634 395-463): as the sequence (P53634 395-463) above
Assay: Human DPP1 enzyme single-point percent inhibition testing (HL-60 lysate, H-Gly-Arg-AMC substrate)
Format: biochemical
Conditions: read-out: human DPP1 enzyme % inhibition @ 10 nM, 10 nM compound, 400 μM H-Gly-Arg-AMC, 10 min pre-incubation at 37° C.

{"molecule": "CO[C@@H](CN(C)C)C(=O)N[C@H](C#N)Cc1ccc(-c2ccc3nnn(C)c3c2)cc1F", "inhibition at 0.01 µM": "40 to 66.7%"}
{"molecule": "CN(C)C[C@](C)(O)C(=O)N[C@H](C#N)Cc1ccc(-c2ccc3c(c2)C2(CCN(C)C2)OC3=O)cc1F (stereo partly drawn)", "inhibition at 0.01 µM": "≥ 66.7%"}
{"molecule": "CN(C)C[C@H](O)C(=O)N[C@H](C#N)Cc1ccc(-c2cnc3c(n2)CCCC3)cc1F", "inhibition at 0.01 µM": "≤ 40%"}
{"molecule": "CN(C)C[C@H](O)C(=O)NC(C#N)Cc1cc2c(cc1F)-c1cc(C#N)ccc1CO2 (stereo partly drawn)", "inhibition at 0.01 µM": "≤ 40%"}
{"molecule": "CCN1C(=O)Cc2ccc(-c3ccc(C[C@@H](C#N)NC(=O)[C@H](CN(C)C)OC)c(F)c3)cc21", "inhibition at 0.01 µM": "40 to 66.7%"}
{"molecule": "CO[C@@H](CN(C)C)C(=O)N[C@H](C#N)Cc1cc2c(cc1F)-c1ccc(F)cc1CO2", "inhibition at 0.01 µM": "≤ 40%"}
{"molecule": "CO[C@@H](CN(C)C)C(=O)N[C@H](C#N)Cc1ccc(-c2ccc3oc(=O)n(C)c3c2)cc1", "inhibition at 0.01 µM": "≤ 40%"}
{"molecule": "CCN1C(=O)Cc2ccc(-c3ccc(C[C@@H](C#N)NC(=O)[C@@](C)(O)CN(C)C)cc3)cc21", "inhibition at 0.01 µM": "40 to 66.7%"}
{"molecule": "CN(C)C[C@](C)(O)C(=O)N[C@H](C#N)Cc1ccc(-c2ccc3nnn(C)c3c2)cc1F", "inhibition at 0.01 µM": "≥ 66.7%"}
{"molecule": "CN(C)C[C@H](O)C(=O)N[C@H](C#N)Cc1ccc(-c2ccc3cnn(C)c3c2)cc1", "inhibition at 0.01 µM": "≤ 40%"}
{"molecule": "CO[C@@H](CN(C)C)C(=O)N[C@H](C#N)Cc1cc2c(cc1F)-c1ccc(C#N)cc1CO2", "inhibition at 0.01 µM": "≤ 40%"}
{"molecule": "CN(C)C[C@H](O)C(=O)N[C@H](C#N)Cc1ccc(-c2ccc3nnn(C)c3c2)cc1", "inhibition at 0.01 µM": "≤ 40%"}
{"molecule": "CO[C@@H](CN(C)C)C(=O)N[C@H](C#N)Cc1ccc(-c2cc3c(C)nc(C)cn3c2)cc1F", "inhibition at 0.01 µM": "≤ 40%"}
{"molecule": "CN(C)C[C@](C)(O)C(=O)N[C@H](C#N)Cc1ccc(-c2ccc3oc(=O)n(C)c3c2)cc1F", "inhibition at 0.01 µM": "≥ 66.7%"}
{"molecule": "CO[C@@H](CN(C)C)C(=O)N[C@H](C#N)Cc1ccc(-c2ccc3oc(=O)n(CCN4CCOCC4)c3c2)cc1", "inhibition at 0.01 µM": "≤ 40%"}
